Reference source for all entries: the EternaBench riboswitch data

- Tested on: MS2 coat protein
- protocol.description: apparent Kd, MS2 coat protein; higher = weaker binding; RNA-MaP array; theophylline 2 mM where present
- recorded.conditions: designed as: OFF switch for theophylline; no ligand
# apparent Kd per record follows
Express it in nM; write the number only.

Example results:
                           polymer_sequence  meas_value
0  CUUGUCGUAACUGAUACCAGUGUACUGACAUGAGGAUCACCCAUGUUGGGUUUUGUUGUACACCCUUGGCAGCAGAAUCGAUAAG        73.8
1  GCUGGGUGCGCAAGGACCUGGCGUUGCGAUACCAGCACGGUAACGUGCCCUUGGCAGCGCACAUGAGGAUCACCCAUGUGGUGCG        24.6

Prompt: Given the sequence ACAUGAGGAUCACCCAUGUUCCUCAUUGAUACCAGUGAAUUUAGACGCCCUUGGCAGCGAGUUUUUGAAGAAGAAGUUUUUUUUU , what is its reported apparent Kd?
Completion: 545

Prompt: Proceed to GAAACGUAGGUGGAGCGGUGAAAUGGCGAUACCAGCGUGGAAACAUGCCCUUGGCAGCGUUAGAACAUGAGGAUCACCCAUGUUU
Completion: 13.3

###

- Test system: MS2 coat protein
- protocol.description: apparent Kd, MS2 coat protein; higher = weaker binding; RNA-MaP array
- recorded.conditions: ligand present: tryptophan; designed as: ON switch for tryptophan
measured.attribute: apparent Kd (µM)
Express it in µM; write the number only.

>>> df
                           polymer_sequence  meas_value
0  UACCUUAACACGGCCGCCACUCUCUAAUAGGAUCAUGGUACCGCACAUGAGGAUCACCCAUGUUUGAGGACCGGGUGUUAUGAAG      0.0287
1  AAUAUUAUGUCGGCCGCCACUUCCCACAAGAGGUGCCUGCACCCACAUGAGGAUCACCCAUGUCGAAGGACCGGGACGCUCAAUU      0.0156
2  UCUCACAUGAGGAUCACCCAUGUUAAGGCCCGAGGACCGGUACGGCCGCCACUCGUUGGAAGCCGGUAACGUACGAAUCUUCCGU       0.024

Please examine the following record next.
Prompt: Given the sequence UAGUACAUGAGGAUCACCCAUGUCGGAGGUCGAGGACCGGUACGGCCGCCACUCGGUCAUGCCCUACGAUACGACAGGAAUCUGU , what is its reported apparent Kd?
Completion: 0.0168

###

- Tested on: MS2 coat protein
- protocol.description: apparent Kd, MS2 coat protein; higher = weaker binding; RNA-MaP array; FMN 200 µM where present
- recorded.conditions: designed as: OFF switch for flavin mononucleotide; no ligand
measured.attribute: apparent Kd (nM)
Express it in nM; write the number only.

Example results:
                           polymer_sequence  result_units  meas_value
0  GCGAUGUUAGGAUAUACAUGAGGAUCACCCAUGUUCAGACUGAGCCUAGAGCGUCUAUGUAGAAGGGACUCGCA            nM        27.2
1  AAGUUGUCAGGAUAUCGUUAAUUUAGUUGUUUGUAUUAGUUCGAGAAGGGACAUGAGGAUCACCCAUGUUUGAA            nM        32.5
2  CUUCUGUCAGGAUAUGCGAAUCACCACUGGGUCAGUGGUGAGCAGAAGGGACAUGAGGAUCACCCAUGUAAAGU            nM        36.3

Please examine the following record next.
Prompt: Given the sequence GGAUAGGACAGAGGAUAUACGUGCUAGAGAUAAUAGCAAAAUUUCCUCACAUGAGGAUCACCCAUGUAGAAGGCUGUCCUAUCG , what is its reported apparent Kd?
Completion: 19.5
